Where these numbers come from: patent US5409933A

So I've got a bunch of molecules here, and I need their MIC values.
test system: Escherichia coli 1507E; test: In Vitro Anti-Bacterial Activity Test (MIC, agar dilution); assay type: cell-based; conditions: Escherichia coli, 1507E, 18 h, Muller-Hinton agar, 37° C.
Counter-ions that a name gives are not always drawn.
Give bare numbers, in µg/mL.

Batch lookup, MIC per entry.
1. CN[C@@H]1CCN(c2c(F)cc3c(=O)c(C(=O)C[N+](=O)[O-])cn(C4CC4)c3c2Cl)C1 [Example 61, hydrochloride]
2. CS(=O)(=O)CC(=O)c1cn(C2CC2)c2c(Cl)c(N3CCC(N)C3)c(F)cc2c1=O (centres unmarked) [Example 33, hydrochloride]
3. CNCC1=CCN(c2c(F)cc3c(=O)c(C(=O)C[N+](=O)[O-])cn(C4CC4)c3c2Cl)C1 [Example 16, hydrochloride]

Response:
1: 0.007; 2: 0.195; 3: 0.013

Batch lookup, MIC per entry.
1. CCOC(=O)C(C(=O)OCC)C(=O)c1cn(C2CC2)c2c(Cl)c(N3CC[C@@H](N)C3)c(F)cc2c1=O [Example 23, hydrochloride]
2. CN[C@H]1CCN(c2c(F)cc3c(=O)c(C(=O)C[N+](=O)[O-])cn(C4CC4)c3c2OC)C1 [Example 65, hydrochloride]

Response:
[0.013, 0.195]

* * *

So I've got a bunch of compounds here, and I need their MIC values.
tested on: Staphylococcus aureus 503; assay: In Vitro Anti-Bacterial Activity Test (MIC, agar dilution); format: cell-based; conditions: Staphylococcus aureus 503; Muller-Hinton agar, 37° C., 18 hours; read-out: MIC
Structures can show the parent of a compound that is named as a salt.
Answers are plain numbers, in µg/mL.

Batch lookup, MIC per entry.
1. CN[C@H]1CCN(c2c(F)cc3c(=O)c(C(=O)C[N+](=O)[O-])cn(C4CC4)c3c2OC)C1 [Example 65, hydrochloride]
2. NC1CCN(c2c(F)cc3c(=O)c(C(=O)C[N+](=O)[O-])cn(C4CC4)c3c2Cl)C1 (centres unmarked) [Example 11, hydrochloride]
3. NCC1CCN(c2c(F)cc3c(=O)c(C(=O)C[N+](=O)[O-])cn(C4CC4)c3c2Cl)C1 (centres unmarked) [Example 53, hydrochloride]
4. CCOC(=O)C(C(=O)OCC)C(=O)c1cn(C2CC2)c2c(Cl)c(N3CC[C@H](NC)C3)c(F)cc2c1=O [Example 56, hydrochloride]
5. NC1CCN(c2c(F)cc3c(=O)c(C(=O)CC(=O)C(F)(F)F)cn(C4CC4)c3c2Cl)C1 (centres unmarked) [Example 38, hydrochloride]
6. CCOC(=O)C(C(=O)OCC)C(=O)c1cn(C2CC2)c2c(OC)c(N3CC[C@@H](NC)C3)c(F)cc2c1=O [Example 58, hydrochloride]
7. CCOC(=O)C(C(=O)OCC)C(=O)c1cn(C2CC2)c2c(Cl)c(N3CC4=C(CNC4)C3)c(F)cc2c1=O [Example 36, hydrochloride]
8. CCOC(=O)C(C(=O)OCC)C(=O)c1cn(C2CC2)c2c(Cl)c(N3CCC(NC)C3)c(F)cc2c1=O (centres unmarked) [Example 57, hydrochloride]

Response:
0.098
0.025
0.013
0.098
0.391
0.195
0.049
0.195

Batch lookup, MIC per entry.
1. CC(=O)C(C(C)=O)C(=O)c1cn(C2CC2)c2c(Cl)c(N3CCC(N)C3)c(F)cc2c1=O (centres unmarked) [Example 48, hydrochloride]
2. CNCC1=CCN(c2c(F)cc3c(=O)c(C(=O)CS(C)(=O)=O)cn(C4CC4)c3c2Cl)C1 [Example 46, hydrochloride]
3. CCOC(=O)C(C#N)C(=O)c1cn(C2CC2)c2c(Cl)c(N3CC=C(CNC)C3)c(F)cc2c1=O (centres unmarked) [Example 40, hydrochloride]
4. CN[C@H]1CCN(c2c(F)cc3c(=O)c(C(=O)C[N+](=O)[O-])cn(C4CC4)c3c2Cl)C1 [Example 62, hydrochloride]
5. N[C@H]1CCN(c2c(F)cc3c(=O)c(C(=O)C[N+](=O)[O-])cn(C4CC4)c3c2Cl)C1 [Example 13, hydrochloride]
6. CNC1CCN(c2c(F)cc3c(=O)c(C(=O)C[N+](=O)[O-])cn(C4CC4)c3c2OC)C1 (centres unmarked) [Example 66, hydrochloride]
7. CCOC(=O)CC(=O)c1cn(C2CC2)c2cc(N3CCNCC3)c(F)cc2c1=O [Example 19, hydrochloride]
8. Cc1c(F)c(N2CCNC(C)C2)cc2c1c(=O)c(C(=O)C[N+](=O)[O-])cn2C1CC1 (centres unmarked) [Example 51, hydrochloride]

Response:
[0.195, 0.049, 1.56, 0.013, 0.049, 0.098, 0.781, 0.098]

Batch lookup, MIC per entry.
1. CN[C@@H]1CCN(c2c(F)cc3c(=O)c(C(=O)C[N+](=O)[O-])cn(C4CC4)c3c2OC)C1 [Example 64, hydrochloride]
2. NC1CCN(c2cc3c(cc2F)c(=O)c(C(=O)C[N+](=O)[O-])cn3-c2ccc(F)cc2F)C1 (centres unmarked) [Example 9, hydrochloride]

Response:
0.098
0.013

Batch lookup, MIC per entry.
1. CCOC(=O)C(C(=O)OCC)C(=O)c1cn(C2CC2)c2cc(N3CCNCC3)c(F)cc2c1=O [Example 18, hydrochloride]
2. CS(=O)(=O)CC(=O)c1cn(C2CC2)c2c(Cl)c(N3CC4=C(CNC4)C3)c(F)cc2c1=O [Example 47, hydrochloride]
3. CCOC(=O)CC(=O)c1cn(C2CC2)c2c(Cl)c(N3CC[C@H](N)C3)c(F)cc2c1=O [Example 27, hydrochloride]

Response:
0.391
0.391
0.049

Batch lookup, MIC per entry.
1. O=C(C[N+](=O)[O-])c1cn(C2CC2)c2c(F)c(N3CCNCC3)c(F)cc2c1=O [Example 6, hydrochloride]
2. CCOC(=O)C(C#N)C(=O)c1cn(C2CC2)c2c(Cl)c(N3CC4=C(CNC4)C3)c(F)cc2c1=O (centres unmarked) [Example 41, hydrochloride]

Response:
[0.391, 6.25]

Batch lookup, MIC per entry.
1. CCOC(=O)CC(=O)c1cn(C2CC2)c2c(F)c(N3CCC(N)C3)c(F)cc2c1=O (centres unmarked) [Example 21, hydrochloride]
2. CCOC(=O)C(C(=O)OCC)C(=O)c1cn(C2CC2)c2c(OC)c(N3CCC(NC)C3)c(F)cc2c1=O (centres unmarked) [Example 60, hydrochloride]

Response:
1: 0.049; 2: 0.098
